B1: library; a variant is named by its letters at N, in order (parent)
chain: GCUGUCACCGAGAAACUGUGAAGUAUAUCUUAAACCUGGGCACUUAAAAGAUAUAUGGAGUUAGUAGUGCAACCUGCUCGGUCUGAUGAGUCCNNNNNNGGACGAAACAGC

# Variants of: B1
# measurement_protocol: normalized RNA/DNA level without ligand (relative to sTRSVctl = 100) (log10 (% of sTRSVctl)); HEK293T; ligand: cyclic di-GMP (c-di-GMP-II aptamer); higher = less ribozyme self-cleavage, higher mRNA level
# condition: reporter: mCherry (pCS4076), ligand present: no
Reported normalized RNA/DNA level without ligand (log10) values for a set of variants
I'd appreciate a reply containing only the number, no unit.

Solved entries:
>  <mutation_code>
GAUGGG

>  <reading>
1.54

$$$$
>  <mutation_code>
UGCUAG

>  <reading>
1.71

$$$$
>  <mutation_code>
GACACG

>  <reading>
1.71

$$$$
>  <mutation_code>
UUUGUG

>  <reading>
1.72

$$$$
>  <mutation_code>
GACGAU

>  <reading>
1.59

$$$$

Input line: Endpoint output: normalized RNA/DNA level without ligand (log10) of `AUCUGU` . Value?
Output line: 1.73

Input line: Endpoint output: normalized RNA/DNA level without ligand (log10) of `AUAUGG` . Value?
Output line: 1.56

Input line: Endpoint output: normalized RNA/DNA level without ligand (log10) of `AUCACA` . Value?
Output line: 1.64

Input line: Endpoint output: normalized RNA/DNA level without ligand (log10) of `UAUCUA` . Value?
Output line: 1.68

Input line: Endpoint output: normalized RNA/DNA level without ligand (log10) of `CAACGC` . Value?
Output line: 1.76

Input line: Endpoint output: normalized RNA/DNA level without ligand (log10) of `UUACCU` . Value?
Output line: 1.74

Input line: Endpoint output: normalized RNA/DNA level without ligand (log10) of `UGACGG` . Value?
Output line: 1.68

Input line: Endpoint output: normalized RNA/DNA level without ligand (log10) of `GGUAUU` . Value?
Output line: 1.61

Input line: Endpoint output: normalized RNA/DNA level without ligand (log10) of `UGCCUC` . Value?
Output line: 1.77

Input line: Endpoint output: normalized RNA/DNA level without ligand (log10) of `AUCCGU` . Value?
Output line: 1.74
